Listing: IC50 of selected molecules
molecular target: HLA-DRB1*01:01 (Homo sapiens, UniProt P01903+P01911, A100R/D57E/F55L/F60I/F76Y/I96L/L162R/M171V/P40L/Q125E/R42F/V115G/Y59C); construct: EBV transformed homozygous cell lines were used as sources of MHC molecules; endogenous in cells; host or cells: EBV transformed homozygous cell lines; assay: HLA class II peptide binding, inhibition of radiolabeled peptide binding to purified MHC; conditions: citrullinated 15-mer (X); purified MHC, inhibition of radiolabeled peptide binding; dash = IC50 >40,000 nM; read-out: DRB1*01:01 binding capacity, Cit peptide (IC50 nM)
Square brackets hold non-standard residues; d marks the D form. Peptide text beside a SMILES is read from it. Cit = NC(=O)NCCC[C@H](N)C(=O)O
Your answer is read as nM, so omit the unit and give the number.

Illustrative cases are given below, each with its answer.
molecule="C[C@H](NC(=O)[C@@H](NC(=O)CNC(=O)[C@@H]1CCCN1C(=O)CNC(=O)CN)[C@@H](C)O)C(=O)N[C@@H](CO)C(=O)N[C@@H](CCCNC(=N)N)C(=O)N1CCC[C@H]1C(=O)N[C@@H](CO)C(=O)N[C@@H](CO)C(=O)N[C@@H](CO)C(=O)N[C@@H](CCCNC(N)=O)C(=O)N[C@@H](CO)C(=O)N[C@@H](Cc1ccc(O)cc1)C(=O)O [GGPGTASRPSSSXSY] (H-GGPGTASRPSSS[Cit]SY-OH)" measurement_kind=IC50 unit_spec=nM quantitative_result=13800
molecule="CSCC[C@H](NC(=O)[C@H](CCC(=O)O)NC(=O)[C@H](CCC(=O)O)NC(=O)[C@H](CCC(N)=O)NC(=O)[C@H](CC(C)C)NC(=O)[C@H](CCCCN)NC(=O)[C@H](CCC(=O)O)NC(=O)[C@@H](N)CCCNC(N)=O)C(=O)N[C@@H](CC(C)C)C(=O)N[C@@H](CCC(N)=O)C(=O)N[C@@H](CCCNC(=N)N)C(=O)N[C@@H](CCC(=O)O)C(=O)N[C@@H](CCC(=O)O)C(=O)N[C@@H](C)C(=O)N[C@@H](CCC(=O)O)C(=O)O [XEKLQEEMLQREEAE] (H-[Cit]EKLQEEMLQREEAE-OH)" measurement_kind=IC50 unit_spec=nM quantitative_result=26100

Attention now turns to another entry.
Find the recorded IC50 belonging to CC[C@H](C)[C@H](NC(=O)[C@H](C)NC(=O)[C@H](CC(=O)O)NC(=O)[C@H](C)NC(=O)[C@H](CC(C)C)NC(=O)[C@H](CO)NC(=O)[C@@H](N)Cc1ccccc1)C(=O)N[C@@H](CC(N)=O)C(=O)N[C@H](C(=O)N[C@@H](CCC(=O)O)C(=O)N[C@@H](Cc1ccccc1)C(=O)N[C@@H](CCCCN)C(=O)N[C@@H](CC(N)=O)C(=O)N[C@H](C(=O)N[C@@H](CCCNC(N)=O)C(=O)O)[C@@H](C)O)[C@@H](C)O [FSLADAINTEFKNTX] (H-FSLADAINTEFKNT[Cit]-OH) and report it.
41

----------
molecular target: HLA-DRB1*01:01 (Homo sapiens, UniProt P01903+P01911, A100R/D57E/F55L/F60I/F76Y/I96L/L162R/M171V/P40L/Q125E/R42F/V115G/Y59C); construct: EBV transformed homozygous cell lines were used as sources of MHC molecules; endogenous in cells; host or cells: EBV transformed homozygous cell lines; test: HLA class II peptide binding, inhibition of radiolabeled peptide binding to purified MHC; settings: citrullinated 15-mer (X); purified MHC, inhibition of radiolabeled peptide binding; dash = IC50 >40,000 nM; read-out: DRB1*01:01 binding capacity, Cit peptide (IC50 nM)
Square brackets hold non-standard residues; d marks the D form. Peptide text beside a SMILES is read from it. Cit = NC(=O)NCCC[C@H](N)C(=O)O
Listing: log10 of IC50 of selected compounds
// units: nM (pre-log); metric: IC50; scale: log10

compound=CSCC[C@H](NC(=O)[C@H](CCC(=O)O)NC(=O)[C@H](CCC(=O)O)NC(=O)[C@H](CCC(=O)O)NC(=O)[C@H](Cc1ccc(O)cc1)NC(=O)[C@H](CC(C)C)NC(=O)[C@H](CC(=O)O)NC(=O)CNC(=O)[C@@H](N)CC(C)C)C(=O)N[C@@H](CCCNC(N)=O)C(=O)N[C@@H](CCC(=O)O)C(=O)N[C@@H](CC(C)C)C(=O)N[C@@H](CCCNC(=N)N)C(=O)N[C@@H](CCCNC(=N)N)C(=O)N[C@@H](CCC(N)=O)C(=O)O quantitative_result=4.14
compound="CC[C@H](C)[C@H](NC(=O)[C@@H](N)CC(=O)O)C(=O)N[C@@H](CCSC)C(=O)N[C@@H](CCCNC(N)=O)C(=O)N[C@@H](CC(C)C)C(=O)N[C@@H](CCCNC(=N)N)C(=O)N[C@@H](CCC(=O)O)C(=O)N[C@@H](CCCCN)C(=O)N[C@@H](CC(C)C)C(=O)N[C@@H](CCC(N)=O)C(=O)N[C@@H](CCC(=O)O)C(=O)N[C@@H](CCC(=O)O)C(=O)N[C@@H](CCSC)C(=O)N[C@@H](CC(C)C)C(=O)N[C@@H](CCC(N)=O)C(=O)O [DIMXLREKLQEEMLQ] (H-DIM[Cit]LREKLQEEMLQ-OH)" quantitative_result=2.99
compound="CC(C)C[C@H](NC(=O)[C@H](C)NC(=O)[C@H](CO)NC(=O)CNC(=O)[C@H](CC(C)C)NC(=O)[C@H](CO)NC(=O)[C@H](Cc1ccc(O)cc1)NC(=O)[C@@H](NC(=O)[C@H](CCCNC(=N)N)NC(=O)[C@@H](NC(=O)[C@H](CO)NC(=O)[C@@H](NC(=O)[C@@H](NC(=O)[C@@H](N)C(C)C)[C@@H](C)O)[C@@H](C)O)[C@@H](C)O)[C@@H](C)O)C(=O)N[C@@H](CCCNC(N)=O)C(=O)O [VTTSTRTYSLGSALX] (H-VTTSTRTYSLGSAL[Cit]-OH)" quantitative_result=0.98
compound="CC[C@H](C)[C@H](NC(=O)[C@H](Cc1ccc(O)cc1)NC(=O)[C@H](CC(N)=O)NC(=O)[C@H](C)NC(=O)[C@H](Cc1ccccc1)NC(=O)[C@H](CCCNC(=N)N)NC(=O)[C@H](CC(=O)O)NC(=O)[C@@H](N)CC(N)=O)C(=O)N[C@@H](CC(=O)O)C(=O)N[C@@H](CCCCN)C(=O)N[C@H](C(=O)N[C@@H](CCCNC(N)=O)C(=O)N[C@@H](Cc1ccccc1)C(=O)N[C@@H](CC(C)C)C(=O)N[C@@H](CCC(=O)O)C(=O)O)C(C)C [NDRFANYIDKVXFLE] (H-NDRFANYIDKV[Cit]FLE-OH)" quantitative_result=2.36

Attention now turns to another entry.
Find the recorded log10 of IC50 belonging to CSCC[C@H](NC(=O)[C@H](CCCNC(=N)N)NC(=O)[C@H](CCCNC(N)=O)NC(=O)[C@@H](N)Cc1ccc(O)cc1)C(=O)N[C@@H](Cc1ccccc1)C(=O)NCC(=O)NCC(=O)N1CCC[C@H]1C(=O)NCC(=O)N[C@H](C(=O)N[C@@H](C)C(=O)N[C@@H](CO)C(=O)N[C@@H](CCCNC(=N)N)C(=O)N1CCC[C@H]1C(=O)N[C@@H](CO)C(=O)O)[C@@H](C)O [YXRMFGGPGTASRPS] (H-Y[Cit]RMFGGPGTASRPS-OH) and report it.
2.40
